Cited source for all entries: patent US20170355774A1

# t½ values compiled below
Molecular target: T1, hGITR.mFc (human)
T1 construct: soluble dimeric construct with mouse Fc; also called dimeric human GITR
T1 chain: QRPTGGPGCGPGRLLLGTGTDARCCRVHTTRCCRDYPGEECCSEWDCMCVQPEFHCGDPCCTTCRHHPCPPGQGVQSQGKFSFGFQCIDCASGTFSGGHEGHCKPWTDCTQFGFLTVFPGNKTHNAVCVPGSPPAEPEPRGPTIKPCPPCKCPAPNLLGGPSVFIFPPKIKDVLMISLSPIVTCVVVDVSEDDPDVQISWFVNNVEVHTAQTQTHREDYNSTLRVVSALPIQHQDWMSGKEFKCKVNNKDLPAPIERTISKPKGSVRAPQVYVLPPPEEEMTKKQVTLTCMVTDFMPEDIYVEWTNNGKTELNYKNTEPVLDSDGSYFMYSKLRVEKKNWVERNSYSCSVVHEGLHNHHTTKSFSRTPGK
Assay: SPR 37C, mAb capture
Quote the value and follow it with the unit of measurement.

binder	result_value
H4H14508P (antibody, human IgG4, V domains shown, human IgG4 (H4H)) VH: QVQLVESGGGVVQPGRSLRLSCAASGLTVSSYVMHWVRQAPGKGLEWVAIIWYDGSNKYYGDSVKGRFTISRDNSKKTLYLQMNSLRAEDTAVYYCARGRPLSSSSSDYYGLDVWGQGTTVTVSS VL: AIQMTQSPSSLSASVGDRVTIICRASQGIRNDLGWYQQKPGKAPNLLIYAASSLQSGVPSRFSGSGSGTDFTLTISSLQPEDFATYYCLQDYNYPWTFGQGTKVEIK	0.268 h

Shifting focus to the binder that follows.
Query: Data request, read-out t½, for H1H14495P (antibody, human IgG1, V domains shown, human IgG1 (H1H)) VH: QVQLVESGGGAVQPGTSLRLSCAASGFTFSSFGMHWVRQAPGKGLEWVSVIWYEGSNKYYADSVKGRFTISRDNSRNTLSLQMDSLRVEDTAVYYCARGGELGVNYYYDMDVWGQGTTVTVSS VL: DIQMTQSPSSLSASVGDRVTITCRASQDIKNDLGWFQQKAGKAPKRLFYATSSLQSGVPSRFSGSGSGTEFTLTISSLQPEDFATYYCLQVHSYPRTFGQGTKVEIK
Response: 1.75 h
